Every entry's value here was drawn from patent US20190352276A1.

ASSAY_PROCEDURE: General cytotoxicity on HepG2 cells (CC50; therapeutic index CC50 HepG2/IC50 Mino)
Assay type: cell-based
CONDITION_SUMMARY: human, HepG2 cells (hepatocellular carcinoma); Table 10; 72 hours, Alamar Blue; average of several tests
Criterion: CC50 at 72 h strictly under 50 µM. Met: condition met. Not met: condition not met.

The following molecules have reported results that may help.
COMPOUND_SMILES: C=CC(=O)N1CC[C@H](n2nc(-c3ccc(Oc4ccncc4)cc3)c3cncc(Cl)c32)C1
DISCRETE_LABEL: condition met
//
COMPOUND_SMILES: C=CC(=O)N1CCC[C@@H](n2nc(-c3ccc(Oc4ccncc4C#N)cc3)c3cncc(C#N)c32)C1
DISCRETE_LABEL: condition not met
//
COMPOUND_SMILES: CC#CC(=O)N1CC[C@@H](n2nc(-c3ccc(Oc4ccncc4)cc3)c3cncc(Cl)c32)C1
DISCRETE_LABEL: condition met
//
COMPOUND_SMILES: C=CC(=O)N1CCC[C@@H](n2nc(-c3ccc(-n4ccc(=O)c(C#N)c4)cc3)c3cncc(Cl)c32)C1
DISCRETE_LABEL: condition not met
//
COMPOUND_SMILES: CC#CC(=O)N1CC(Cn2nc(-c3ccc(Oc4ccncc4)cc3)c3cncc(Cl)c32)C1
DISCRETE_LABEL: condition met
//
COMPOUND_SMILES: C=CC(=O)N1CCC[C@@H](n2nc(-c3ccc(C(=O)Nc4cc(C(F)(F)CCC)ccn4)cc3)c3cncc(F)c32)C1
DISCRETE_LABEL: condition not met
//
COMPOUND_SMILES: C=CC(=O)N1CCC[C@@H](n2nc(-c3ccc(Oc4ccncc4)cc3)c3cncc(C(N)=O)c32)C1
DISCRETE_LABEL: condition not met
//
COMPOUND_SMILES: C=CC(=O)N1CCC[C@@H](n2nc(-c3ccc(Oc4ccncc4)cc3)c3c(N)nccc32)C1
DISCRETE_LABEL: condition met

Hello, is CC50 at 72 h of the following molecule strictly smaller than 50 µM? `C=CC(=O)N1CCC[C@@H](n2nc(-c3ccc(C(=O)Nc4cc(C(F)(F)CCC)ccn4)cc3)c3c(N)ncc(Cl)c32)C1`
condition met

Hello, is CC50 at 72 h of the following molecule strictly smaller than 50 µM? `C=CC(=O)Oc1cc(C#N)c2c(c1)c(-c1ccc(-n3ccc(=O)cc3)cc1)nn2[C@@H]1CCCN(C(=O)C=C)C1`
condition not met

Hello, is CC50 at 72 h of the following molecule strictly smaller than 50 µM? `C=CC(=O)N1CCC[C@@H](n2nc(-c3ccc(C(=O)Nc4cc(C(F)(F)F)ccn4)cc3)c3cncc(C#N)c32)C1`
condition met

Hello, is CC50 at 72 h of the following molecule strictly smaller than 50 µM? `C=CC(=O)N1CCC[C@@H](n2nc(-c3ccc(C(=O)Nc4cc(C(F)(F)CC)ccn4)cc3)c3cncc(C#N)c32)C1`
condition not met

Hello, is CC50 at 72 h of the following molecule strictly smaller than 50 µM? `C=CC(=O)N1CCC[C@@H](n2nc(-c3ccc(-n4ccc(=O)cc4)cc3)c3c(N)ncc(Cl)c32)C1`
condition not met

----------
ASSAY_PROCEDURE: Stability in human blood plasma
CONDITION_SUMMARY: 10 μM in pooled human blood plasma, incubated 4 hours at 37° C.
PARAMETER: Amount of substance in the sample, % (stability in human blood plasma) (%)
Numbers only, in %.

Example cases with answers are listed next.
COMPOUND_SMILES: C=CC(=O)N1CCC[C@@H](n2nc(-c3ccc(C(=O)Nc4ccc(F)cn4)cc3)c3cncc(Cl)c32)C1
UNIT_OF_MEASUREMENT: %
REPORTED_MEASUREMENT: 90.8
//
COMPOUND_SMILES: C=CC(=O)N1CCC[C@@H](n2nc(-c3ccc(Oc4ccncc4C#N)cc3)c3cncc(F)c32)C1
UNIT_OF_MEASUREMENT: %
REPORTED_MEASUREMENT: 90.8
//
COMPOUND_SMILES: CC#CC(=O)N1CCC[C@H](Cn2nc(-c3ccc(C(=O)Nc4ccccn4)cc3)c3cncc(Cl)c32)C1
UNIT_OF_MEASUREMENT: %
REPORTED_MEASUREMENT: 97.4
//
COMPOUND_SMILES: C=CC(=O)N1CCC[C@@H](n2nc(-c3ccc(Oc4ccncc4)cc3)c3c(N)ncc(Cl)c32)C1
UNIT_OF_MEASUREMENT: %
REPORTED_MEASUREMENT: 87.1
//
COMPOUND_SMILES: C=CC(=O)N1CCC[C@@H](n2nc(-c3ccc(C(=O)Nc4cc(C(F)(F)F)ccn4)cc3)c3cncc(C#N)c32)C1
UNIT_OF_MEASUREMENT: %
REPORTED_MEASUREMENT: 80.5
//
COMPOUND_SMILES: C=CC(=O)N1CCC[C@@H](n2nc(-c3ccc(Oc4ccncc4)cc3)c3c(N)ncc(C#N)c32)C1
UNIT_OF_MEASUREMENT: %
REPORTED_MEASUREMENT: 89.7
//
COMPOUND_SMILES: C=CC(=O)N1CCC[C@@H](n2nc(-c3ccc(C(=O)Nc4cc(C(F)(F)CCC)ccn4)cc3)c3cncc(F)c32)C1
UNIT_OF_MEASUREMENT: %
REPORTED_MEASUREMENT: 87.3
//
COMPOUND_SMILES: CC#CC(=O)N1CCC[C@@H](n2nc(-c3ccc(C(=O)Nc4ccccn4)cc3)c3cncc(Cl)c32)C1
UNIT_OF_MEASUREMENT: %
REPORTED_MEASUREMENT: 100.0
//
COMPOUND_SMILES: C=CC(=O)N1CCC[C@@H](n2nc(-c3cnc(C(=O)Nc4cc(C(F)(F)CC)ccn4)nc3)c3cncc(Cl)c32)C1
UNIT_OF_MEASUREMENT: %
REPORTED_MEASUREMENT: 85.7
//
COMPOUND_SMILES: C=CC(=O)N1CCC[C@@H](n2nc(-c3cnc(-n4ccc(=O)c(C#N)c4)nc3)c3cncc(Cl)c32)C1
UNIT_OF_MEASUREMENT: %
REPORTED_MEASUREMENT: 87.6

Record Amount of substance in the sample, % (stability in human blood plasma) per entry; entries follow.
1. CC#CC(=O)N1CC[C@@H](n2nc(-c3ccc(Oc4ccncc4)cc3)c3cncc(Cl)c32)C1
2. C=CC(=O)N1CCC[C@@H](n2nc(-c3ccc(C(=O)Nc4cccc(F)n4)cc3)c3c(N)ncc(Cl)c32)C1
3. C=CC(=O)N1CCC[C@@H](n2nc(-c3ccc(Oc4cccnc4C#N)cc3)c3cncc(C#N)c32)C1
4. CC#CC(=O)N1CCC[C@@H]1Cn1nc(-c2ccc(C(=O)Nc3ccccn3)cc2)c2cncc(Cl)c21

1: 81.7; 2: 84.5; 3: 80.4; 4: 95.4

----------
ASSAY_PROCEDURE: General cytotoxicity on HepG2 cells (CC50; therapeutic index CC50 HepG2/IC50 Mino)
Type: cell-based
CONDITION_SUMMARY: human, HepG2 cells (hepatocellular carcinoma); Table 10; 72 hours, Alamar Blue; average of several tests
Would you kindly list CC50 at 72 h for each of these molecules?

Record CC50 at 72 h per entry; entries follow.
1. CC#CC(=O)N1CCC[C@@H](n2nc(-c3ccc(C(=O)Nc4ccccn4)cc3)c3c(N)ncc(Cl)c32)C1 [BCD-BTK-295]
2. C=CC(=O)N1CCC[C@@H](n2nc(-c3ccc(C(=O)Nc4ccc(F)cn4)cc3)c3c(N)ncc(Cl)c32)C1 [BCD-BTK-237]

["32.5 µM", "28.4 µM"]

----------
ASSAY_PROCEDURE: Permeability through the monolayer of Caco-2 cells
Assay type: in vitro ADME
CONDITION_SUMMARY: human, B→A, 2 h at 37° C.
PARAMETER: Papp B→A at 2 h, 10 μM (×10⁻⁶ cm/s)
Numbers only, in ×10⁻⁶ cm/s.

Example cases with answers are listed next.
COMPOUND_SMILES: C=CC(=O)N1CCC[C@@H](n2nc(-c3ccc(C(=O)Nc4cccc(F)n4)cc3)c3cncc(C#N)c32)C1
Papp B→A at 2 h, 10 μM, ×10⁻⁶ cm/s: 0.3

COMPOUND_SMILES: C=CC(=O)N1CCC[C@@H](n2nc(-c3ccc(Oc4ccncc4)cc3)c3c(N)ncc(Cl)c32)C1
Papp B→A at 2 h, 10 μM, ×10⁻⁶ cm/s: 5.7

COMPOUND_SMILES: CC#CC(=O)N1CC(Cn2nc(-c3ccc(Oc4ccncc4)cc3)c3cncc(Cl)c32)C1
Papp B→A at 2 h, 10 μM, ×10⁻⁶ cm/s: 0.95

COMPOUND_SMILES: C=CC(=O)N1CCC[C@@H](n2nc(-c3ccc(Oc4cccnc4C#N)cc3)c3cncc(C#N)c32)C1
Papp B→A at 2 h, 10 μM, ×10⁻⁶ cm/s: 8.72

COMPOUND_SMILES: C=CC(=O)N1CC[C@H](n2nc(-c3ccc(Oc4ccncc4)cc3)c3cncc(Cl)c32)C1
Papp B→A at 2 h, 10 μM, ×10⁻⁶ cm/s: 2.2

COMPOUND_SMILES: C=CC(=O)N1CC[C@@H](n2nc(-c3ccc(Oc4ccncc4)cc3)c3cncc(Cl)c32)C1
Papp B→A at 2 h, 10 μM, ×10⁻⁶ cm/s: 1.1

Please examine the following record next.
Kindly note the recorded Papp B→A at 2 h, 10 μM for `C=CC(=O)N1CCC[C@@H](n2nc(-c3ccc(C(=O)Nc4ccccn4)cc3)c3cncc(C#N)c32)C1` , which is 1.4
